Just for reference, PubChem BioAssay (NCI) is where these values come from.

Measured growth of individual entries
Tested on: DU-145 prostate
Experiment: NCI-60 one-dose screen, 48 h (100 = growth as untreated, 0 = no growth, -100 = all killed)
Conditions: 10 µM
This is part of a sample that, as a whole, favours compounds with a hit. Of some 83,000 tested, about 20% had one in any assay.
Numbers only; they are read as %.

CC(=O)Nc1c(C)cc(C)cc1C    101

Challenge: Item under review: COc1ccccc1N1CCN(C(=S)Nc2ccccc2)CC1 . Reported growth?
Response given: 100

Challenge: Continue with O=[N+]([O-])c1ccc(/C=C/C=C/c2ccccc2)c(Cl)c1
Response given: 109

Challenge: Continue with O=c1[nH]cc(Cl)cc1O
Response given: 96.8

Challenge: Continue with CC(=O)Cc1cc(-c2cc(CC(C)=O)[nH]n2)n[nH]1
Response given: 107

Challenge: Continue with C/C(O)=C(\C=N\C(N)=S)C(=O)Nc1ccccc1
Response given: 109

Challenge: Continue with O=C(N/N=C\c1cc(Br)cc(Br)c1O)N/N=C/c1cc(Br)cc(Br)c1O
Response given: 75.2

Challenge: Continue with S=C1CCCCCN1
Response given: 110

---

System: HT29 colon
Test: NCI-60 one-dose screen, 48 h (100 = growth as untreated, 0 = no growth, -100 = all killed)
Settings: 10 µM
Protocol: Growth inhibition of the HT29 human tumor cell line is measured as a screen for anti-cancer activity. Cells are grown in 96 well plates and exposed to the test compound for 48 hours. Compounds are tested at a single concentration, which is 10^-5 M for most compounds. The reported endpoint is percent growth (GI% or GIPRCNT), where numbers from 0 - 100% represent growth inhibition, and numbers from -100% - 0 represent cell death. For example, a value of 40 represents 60% growth inhibition. […]
Compounds without any hit were thinned out: in the full panel of roughly 83,000, 20% have a hit. Activity calls are given as the source filed them. The calls were made as follows: active = growth percent below 10; inactive = the rest.
Measured growth of individual entries

CC12CC3CC1C(C(=O)O2)C3C(=O)O (stereo unspecified)    98.9% (inactive)
O=C1C=CC(=O)N1c1ccc(I)cc1Cl    100% (inactive)
Nc1ccc(C(=O)c2ccc(N)c(Br)c2)cc1Br    -14.2% (active)
Nc1nc(OCc2ccccc2)c2[nH]cnc2n1    105% (inactive)
CC1CCCCN1C(=S)Nc1ccc(S(=O)(=O)N2CCCCC2)cc1 (stereo unspecified)    94% (inactive)

# input for lookup
Challenge: Item under review: NC(CSC(c1ccccc1)(c1ccccc1)c1ccccc1)C(=O)O (stereo unspecified) . Reported growth?
Response given: 14% (inactive)

---

Tested on: NCI-H460 lung
Test: NCI-60 one-dose screen, 48 h (100 = growth as untreated, 0 = no growth, -100 = all killed)
Conditions: 10 µM
The panel holds about 83,000 compounds, 20% with a hit somewhere; the sample as a whole holds those more often.
RECORDED_METRIC: growth (%)
Numbers only; they are read as %.

Examples with answers:
O=C1NC(=O)C2C(=O)NC(=O)C1C21CCc2ccccc21 (configuration not stated)    115
Cc1cc(N2CCC(N3CCCC3)CC2)nc(/N=C(\N)Nc2ccc(Cl)c(Cl)c2)n1    -67.8

Challenge: Item under review: CCCCCCCCO . Reported growth?
Response given: 103

Challenge: Continue with O=c1cc2oc3cc(O)c(O)cc3c(-c3ccccc3O)c-2cc1O
Response given: 96

Challenge: Continue with C=CCc1cc(C(C)=O)cc(OC)c1O
Response given: 97.8

Challenge: Continue with CC(C)(O)C#CC#CC(C)(C)O
Response given: 104

Challenge: Continue with CCN(CC)CCNc1ccc(CO)c2sc3ccccc3c(=O)c12
Response given: 14.5

Challenge: Continue with CN(C)Cc1cc(C(C)(C)CC(C)(C)C)ccc1O
Response given: 100

Challenge: Continue with Nc1ccc(N=Nc2ccc(O)cc2)c(N)n1
Response given: 84.1

Challenge: Continue with CCCCCCCCOC(=O)c1ccccn1
Response given: 109

Challenge: Continue with CCNc1nc2c(cnn2C)c(=O)[nH]1
Response given: 108

Challenge: Continue with CCC/C=C(/C(C)=O)C(=O)OCC
Response given: 114

Challenge: Continue with CC(C)=C(NC(=O)c1ccccc1)C(=O)O
Response given: 111

Challenge: Continue with CCOC(=O)C1=C(C)NC(=O)NC1c1cccs1 (configuration not stated)
Response given: 118

Challenge: Continue with CCCCC1(CC)COC(CCC)OC1 (configuration not stated)
Response given: 115

Challenge: Continue with CC1CC(O)C2C3(C)CCCC2(COC3=O)C12CCC1(CCOC1=O)O2 (configuration not stated)
Response given: 95.4
